Cited source for all entries: the RNAGym collection of RNA variant scans (doi:10.1073/pnas.2313332121)

B1: TPR t1 (parent)
chain: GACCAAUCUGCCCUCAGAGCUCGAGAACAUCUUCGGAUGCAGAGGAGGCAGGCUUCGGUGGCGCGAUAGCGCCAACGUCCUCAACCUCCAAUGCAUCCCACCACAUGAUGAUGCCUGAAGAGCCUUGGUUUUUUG

# Variants of: B1
# ASSAY_NAME: polymerase ribozyme fitness, log enrichment relative to wild type (log ratio); higher = more active; in vitro selection for triplet polymerase activity
MEASURE: polymerase ribozyme fitness (log ratio)

Some solved entries appear below for comparison.
[
  {
    "MUTATION_STRING": "A111C U126C",
    "REPORTED_MEASUREMENT": 0.272
  },
  {
    "MUTATION_STRING": "G36U C101A",
    "REPORTED_MEASUREMENT": -2.53
  },
  {
    "MUTATION_STRING": "C20A A24U U54A C115G",
    "REPORTED_MEASUREMENT": -6.69
  },
  {
    "MUTATION_STRING": "C62G U112G",
    "REPORTED_MEASUREMENT": -1.83
  }
]

Qu. GET /values?readout=polymerase ribozyme fitness (log ratio)&item= G117A A121C
Ans. -0.623

Qu. GET /values?readout=polymerase ribozyme fitness (log ratio)&item= C56A G71U G122A
Ans. -2.05

Qu. GET /values?readout=polymerase ribozyme fitness (log ratio)&item= A27G C64U C73U
Ans. -2.48

Qu. GET /values?readout=polymerase ribozyme fitness (log ratio)&item= G10A C28G U106A G127U G128C
Ans. -3.76

Qu. GET /values?readout=polymerase ribozyme fitness (log ratio)&item= G61C G113U
Ans. -4.1
